test system: MIA PaCa-2; assay: Cytotoxicity against human MIAPaCa2 cells assessed as growth inhibition at 10 uM measured after 48 hrs by MTT assay relative to control; format: functional; conditions: MIA PaCa-2, 48 h, read-out: GI
value.kind: inhibition of growth at 10 µM

Examples from the recorded data:
>>> print(df.to_string())
                           substance_smiles  tested_target  experimental_result
0  O=C(/C=C/c1ccc(OCc2cn(Cc3ccccc3)nn2)cc1)c1ccc(Br)cc1     MIA PaCa-2                  44%
1  O=C(/C=C/c1ccc(OCc2cn(Cc3ccc(F)cc3)nn2)cc1)c1ccc([N+](=O)[O-])cc1     MIA PaCa-2                  44%
2  O=C(/C=C/c1ccc(OCc2cn(Cc3ccc(F)cc3)nn2)cc1)c1ccc(Br)cc1     MIA PaCa-2                  32%
3  O=C(/C=C/c1ccc(OCc2cn(Cc3ccccc3F)nn2)cc1)c1ccc(Br)cc1     MIA PaCa-2                  28%

// below: inhibition of growth at 10 µM requested for another compound
Would you mind telling me what inhibition of growth at 10 µM value was observed for COc1ccc(C(=O)/C=C/c2ccc(OCc3cn(Cc4cccc(Br)c4)nn3)cc2)cc1 ?
50%

All values here come from ChEMBL document CHEMBL4000203.
